Attribution: patent US9440984B2

experiment: Rat pharmacokinetic (PK) studies; conditions: Sprague-Dawley, rat, in vivo, po, 5 mg/kg

molecule	unit	AUC(0-inf)
COc1cc([C@@H]2CCN(CCO)C[C@H]2O)ccc1Nc1ncc2ccc(-c3ccccc3OC)n2n1 (racemic)	ng·h/mL	708

* * *

test: Rat pharmacokinetic (PK) studies; details: Sprague-Dawley, rat, in vivo, po, 5 mg/kg
recorded metric: Cmax

molecule	result
COc1cc([C@@H]2CCN(CCO)C[C@H]2O)ccc1Nc1ncc2ccc(-c3ccccc3OC)n2n1 (racemic) [Example 16]	0.097 µg/mL

* * *

IC50 for assorted compounds
target: ALK (Homo sapiens, UniProt Q9UM73); test: ALK autophosphorylation enzyme assay; assay type: biochemical
Sequence (Q9UM73 19-1620): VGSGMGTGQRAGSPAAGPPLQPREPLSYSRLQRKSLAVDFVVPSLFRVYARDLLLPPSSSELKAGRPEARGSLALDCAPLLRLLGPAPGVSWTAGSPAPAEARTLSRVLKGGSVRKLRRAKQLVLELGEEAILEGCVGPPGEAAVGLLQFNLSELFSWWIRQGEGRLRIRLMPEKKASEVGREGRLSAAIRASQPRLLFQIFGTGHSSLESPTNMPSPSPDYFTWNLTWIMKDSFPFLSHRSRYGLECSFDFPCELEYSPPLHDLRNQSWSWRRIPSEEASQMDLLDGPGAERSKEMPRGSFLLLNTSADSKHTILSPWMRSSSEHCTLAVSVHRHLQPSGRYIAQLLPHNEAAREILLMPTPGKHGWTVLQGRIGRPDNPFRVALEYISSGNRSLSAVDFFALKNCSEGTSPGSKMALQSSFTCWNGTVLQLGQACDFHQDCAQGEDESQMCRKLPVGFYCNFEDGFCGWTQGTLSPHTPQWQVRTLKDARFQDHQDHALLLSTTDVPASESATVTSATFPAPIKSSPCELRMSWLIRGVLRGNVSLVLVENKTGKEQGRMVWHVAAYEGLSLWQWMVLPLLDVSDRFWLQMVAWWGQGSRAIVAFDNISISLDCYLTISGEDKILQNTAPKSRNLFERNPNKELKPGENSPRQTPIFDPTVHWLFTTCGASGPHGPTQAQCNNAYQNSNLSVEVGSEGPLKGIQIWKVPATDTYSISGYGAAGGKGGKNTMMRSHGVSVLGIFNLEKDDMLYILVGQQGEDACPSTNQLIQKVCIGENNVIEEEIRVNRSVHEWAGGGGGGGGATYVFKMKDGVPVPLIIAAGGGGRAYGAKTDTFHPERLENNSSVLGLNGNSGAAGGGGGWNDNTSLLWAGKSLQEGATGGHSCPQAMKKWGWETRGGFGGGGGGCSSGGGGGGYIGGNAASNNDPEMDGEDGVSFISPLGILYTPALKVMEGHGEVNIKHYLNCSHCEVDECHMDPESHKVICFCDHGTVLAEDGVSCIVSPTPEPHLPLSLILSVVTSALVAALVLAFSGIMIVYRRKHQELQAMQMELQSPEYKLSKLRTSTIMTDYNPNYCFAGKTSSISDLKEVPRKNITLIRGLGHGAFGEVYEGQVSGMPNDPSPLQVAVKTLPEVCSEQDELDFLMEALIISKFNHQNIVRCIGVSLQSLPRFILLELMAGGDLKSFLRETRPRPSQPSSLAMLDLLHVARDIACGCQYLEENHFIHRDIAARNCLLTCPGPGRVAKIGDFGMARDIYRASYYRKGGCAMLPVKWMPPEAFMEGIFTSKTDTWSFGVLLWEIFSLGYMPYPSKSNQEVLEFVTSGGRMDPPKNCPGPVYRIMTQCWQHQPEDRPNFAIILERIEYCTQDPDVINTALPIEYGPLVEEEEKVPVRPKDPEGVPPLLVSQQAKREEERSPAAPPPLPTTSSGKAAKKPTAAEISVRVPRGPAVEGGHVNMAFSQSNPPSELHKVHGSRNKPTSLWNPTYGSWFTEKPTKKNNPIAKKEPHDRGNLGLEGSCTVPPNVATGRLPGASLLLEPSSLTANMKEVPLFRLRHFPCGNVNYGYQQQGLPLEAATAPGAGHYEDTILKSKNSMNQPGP

compound	unit	IC50
COc1cc([C@@H]2CCNC[C@@H]2O)ccc1Nc1ncc2ccc(-c3cccnc3OC)n2n1 (racemic)	nM	14
COc1cc(C2CCN(CCO)CC2(F)F)ccc1Nc1ncc2ccc(-c3cccnc3OC)n2n1 (racemic)	nM	34
COc1cc(C2CCNCC2(F)F)ccc1Nc1ncc2ccc(-c3cccnc3OC)n2n1 (racemic)	nM	13.7
COc1cc([C@@H]2CCN(CC(C)(C)O)C[C@H]2F)ccc1Nc1ncc2ccc(-c3cccnc3OC)n2n1 (racemic)	nM	25.2
COCCN1CC[C@@H](c2ccc(Nc3ncc4ccc(-c5ccccc5OC)n4n3)c(OC)c2)[C@@H](O)C1 (racemic)	nM	3.33
COc1cc([C@@H]2CCNC[C@H]2F)ccc1Nc1ncc2ccc(-c3ccccc3OC)n2n1 (racemic)	nM	5.66
COc1cc(C2CCN(CCO)CC2(F)F)ccc1Nc1ncc2ccc(-c3ccccc3OC)n2n1 (racemic)	nM	28.2
COc1cc(C2CCN(CCO)CC2)ccc1Nc1ncc2ccc(-c3ccccc3OC)n2n1	nM	3

* * *

experiment: Rat pharmacokinetic (PK) studies; settings: Sprague-Dawley, rat, in vivo, iv, 1 mg/kg

compound	unit	half-life
COc1cc([C@@H]2CCN(CCO)C[C@H]2O)ccc1Nc1ncc2ccc(-c3ccccc3OC)n2n1 (racemic)	h	3.2

* * *

assay: Rat pharmacokinetic (PK) studies; conditions: Sprague-Dawley, rat, in vivo, iv, 1 mg/kg
recorded metric: clearance

compound	recorded metric	result
COc1cc([C@@H]2CCN(CCO)C[C@H]2O)ccc1Nc1ncc2ccc(-c3ccccc3OC)n2n1 (racemic)	clearance	39 mL/min/kg

* * *

experiment: Rat pharmacokinetic (PK) studies; details: Sprague-Dawley, rat, in vivo, iv, 1 mg/kg

compound	Vd
COc1cc([C@@H]2CCN(CCO)C[C@H]2O)ccc1Nc1ncc2ccc(-c3ccccc3OC)n2n1 (racemic)	10.3 L/kg

* * *

experiment: Rat pharmacokinetic (PK) studies; details: Sprague-Dawley, rat, in vivo, po, 5 mg/kg

molecule	Tmax [h]
COc1cc([C@@H]2CCN(CCO)C[C@@H]2O)ccc1Nc1ncc2ccc(-c3ccccc3OC)n2n1 (racemic)	6
COc1cc([C@@H]2CCN(CCO)C[C@H]2O)ccc1Nc1ncc2ccc(-c3ccccc3OC)n2n1 (racemic)	4

* * *

molecular target: ALK (Homo sapiens, UniProt Q9UM73); experiment: ALK autophosphorylation cellular assay; assay type: cell-based; conditions: read-out: ALK Cell IC50
Sequence (Q9UM73 with tags, fused parts or gaps): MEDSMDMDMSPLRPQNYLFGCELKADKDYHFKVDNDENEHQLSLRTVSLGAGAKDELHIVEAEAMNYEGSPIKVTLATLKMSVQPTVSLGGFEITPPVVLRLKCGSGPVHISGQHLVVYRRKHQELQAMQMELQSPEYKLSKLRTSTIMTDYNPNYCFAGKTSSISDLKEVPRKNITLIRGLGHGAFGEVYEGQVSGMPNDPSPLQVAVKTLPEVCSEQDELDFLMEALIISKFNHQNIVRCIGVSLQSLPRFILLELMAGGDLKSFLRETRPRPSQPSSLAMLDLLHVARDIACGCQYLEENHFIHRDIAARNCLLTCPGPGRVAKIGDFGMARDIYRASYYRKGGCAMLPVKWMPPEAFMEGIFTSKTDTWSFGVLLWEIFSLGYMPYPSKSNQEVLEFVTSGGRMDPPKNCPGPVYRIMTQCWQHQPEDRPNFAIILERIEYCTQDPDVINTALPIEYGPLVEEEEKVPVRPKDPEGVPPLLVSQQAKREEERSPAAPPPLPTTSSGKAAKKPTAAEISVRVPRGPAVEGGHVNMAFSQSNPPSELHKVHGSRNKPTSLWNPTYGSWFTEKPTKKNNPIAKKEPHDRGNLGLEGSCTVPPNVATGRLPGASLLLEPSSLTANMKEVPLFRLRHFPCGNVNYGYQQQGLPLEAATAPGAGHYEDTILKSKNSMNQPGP

molecule	unit	IC50
COc1cc(C2CCN(CCO)CC2)ccc1Nc1ncc2ccc(-c3ccccc3OC)n2n1 [Example 18]	nM	150
COCCN1CC[C@@H](c2ccc(Nc3ncc4ccc(-c5ccccc5OC)n4n3)c(OC)c2)[C@@H](O)C1 (racemic) [Example 1]	nM	50
COc1cc(C2CCNCC2(F)F)ccc1Nc1ncc2ccc(-c3cccnc3OC)n2n1 (racemic) [Example 12]	nM	200
